Where do the numbers come from? From PubChem BioAssay (NCI).

- Test system: KM12 colon
- assay: NCI-60 one-dose screen, 48 h
- study-conditions: 10 µM unless noted
- Description: Growth inhibition of the KM12 human tumor cell line is measured as a screen for anti-cancer activity. Cells are grown in 96 well plates and exposed to the test compound for 48 hours. Compounds are tested at a single concentration, which is 10^-5 M for most compounds. The reported endpoint is percent growth (GI% or GIPRCNT), where numbers from 0 - 100% represent growth inhibition, and numbers from -100% - 0 represent cell death. For example, a value of 40 represents 60% growth inhibition. […]
The panel holds about 83,000 compounds, 20% with a hit somewhere; the sample as a whole holds those more often. Calls of active or inactive are those of the source. Rule for the calls: active = growth percent below 10; inactive = the rest.
Return exactly one item of t = active, f = inactive

Request: Which outcome was entered for the compound `O=C(NCCN1CCOCC1)Nc1ccc(-c2cc3c(Nc4ccc(Oc5cccc(C(F)(F)F)c5)c(Cl)c4)ncnc3s2)cc1` in this test?
Result: t

Request: What is the recorded call for this compound in the test? `O=C1C=CC(=O)N1c1ccc2c(c1)Cc1cc(F)ccc1-2`
Result: f

Request: So what was the verdict on `COc1ccc2cc(-c3nn(-c4ccc(C(=O)O)cc4)cc3CO)ccc2c1` in this test?
Result: f

Others:
Request: Just curious, what result did `Cc1cc2nc(NC(=O)CN3CCN(CCN4C(=O)c5cccc6cccc(c56)C4=O)CC3)sc2cc1C` get here?
Result: f

Request: What outcome does the record of this test show for `Cn1c(NCCc2ccc(O)c(O)c2)nc2c1c(=O)n(Cc1ccc(Br)cc1)c(=O)n2C` ?
Result: f

Request: Please share the test call associated with `O=Nc1c(O)c(Cl)cc2ccccc12` .
Result: f

Request: GET /call?item= OCC(O)c1nc2ccc3[nH]ncc3c2c2c1CCCC2 (centres undefined) returns the recorded outcome of this test.
Result: t

Request: Write down the call the test reported for this compound. Item: `O=C1C=C(OCC=C(Cl)Cl)C(=O)c2ccccc21`
Result: f

Request: Please let me know the test result on file for `COc1cccc(-c2nn(C(C)(C)C)cc2-c2ccnc(NCCCNS(=O)(=O)c3ccc(C)cc3)c2)c1` .
Result: f

Request: Recorded test outcome, item `CC(C)(CCCN=C(N)Nc1ccc(Cl)cc1)c1ccc(F)cc1`
Result: f

---

- Tested on: K-562 leukemia
- assay: NCI-60 one-dose screen, 48 h (100 = growth as untreated, 0 = no growth, -100 = all killed)
- study-conditions: 10 µM unless noted
Compounds without any hit were thinned out: in the full panel of roughly 83,000, 20% have a hit.
readout-kind: growth (%)
Numbers only, in %.

Answered examples (3):
Request: Fill in growth for record OCC(O)c1nc2ccc3[nH]ncc3c2c2c1CCCC2 (stereo not given)
Result: 37.2

Request: // fetch growth given entry `CSc1nc(NCCN2CCOCC2)c(C#N)c(-c2cccc([N+](=O)[O-])c2)n1`
Result: 100

Request: Note growth for the compound shown: `O=C(O)c1ccc(N=CC(=O)c2ccc(-c3ccccc3)cc2)cc1`
Result: 116

Parameters: items (list). Returns: growth for each item.
1. COc1cc(/C=C/c2cc(/C=C/c3ccc(O)c(OC)c3)n(-c3c(Cl)cccc3Cl)c(=O)n2)ccc1O
2. Cn1ccnc1C(=O)/C=C/c1ccccc1
3. COc1ccc(S(=O)(=O)N2CCCCCC2)cc1NC(=O)c1[nH]c(C)c2c1CCCCC2=O
4. C=C1c2nc3ccccc3n2C=C(c2ccc(Cl)cc2)N1Cc1ccc(OC)cc1
5. CCOC(=O)n1cc(-c2nonc2-c2cn(C)c3ncccc23)c2cc(F)ccc21
6. C=C(C)[C@@H]1CC[C@]2(C(=O)OC)CC[C@]3(C)[C@H](CC[C@@H]4[C@@]5(C)C/C(=C/c6ccc(OC)cc6)C(=O)C(C)(C)[C@@H]5CC[C@]43C)[C@@H]12
7. Cn1cc(-c2nonc2-c2c[nH]c3ccc(F)cc23)c2cccnc21
8. COc1ccc(/C=C/c2nc(-c3n[nH]c(=O)n3-c3ccccc3)c3ccccc3n2)cc1

Result:
1. 9.21
2. 8.07
3. 21.4
4. 59.2
5. 61.2
6. 3.32
7. 58
8. 95.7

Would you mind giving growth for every compound in the list below?
1. CC(=O)O[C@H]1[C@@H]2OC(=O)C(CSc3ccccc3)[C@@H]2C[C@H]2O[C@]2(C)CC/C=C(\C)CCC[C@@H]1C (stereo not given in full)
2. O=C(COc1ccc(-c2nc3cc(Cl)c(Cl)cc3[nH]2)cc1)N=Nc1c(O)[nH]c2ccccc12
3. COc1cccc(/C=N/NC(=O)c2ccccc2Nc2ccnc(C(F)(F)F)c2)c1O
4. CCOC(=O)c1c(CN2CCN(C)CC2)nc2ccc(Cl)cc2c1-c1ccccc1
5. COc1cccc(/C=C2\Oc3cc(OCCN4CCCC4)ccc3C2=O)c1
6. CCn1c(Cc2ccccc2Nc2c(Cl)cccc2Cl)nnc1SCC(=O)NN1C(=O)/C(=C/c2cc(OC)c(O)c(OC)c2)SC1=S
7. O=c1nc2oc3ccc4ccccc4c3cc-2s1
8. COc1ccc(S(=O)(=O)N2CCCCC2)cc1NC(=O)c1[nH]c(C)c2c1CCCCC2=O

Result:
63.1
10.8
33.7
11.7
-26.9
19.4
11.9
22
